Target: Gastrin receptor (gastric glands) (Cavia porcellus, UniProt H0VZC5)
Construct: The washed guinea pig gastric glands prepared as above were resuspended; from tissue; host or cells: guinea pig gastric mucosal glands (male Hartley)
Sequence (H0VZC5 1-426): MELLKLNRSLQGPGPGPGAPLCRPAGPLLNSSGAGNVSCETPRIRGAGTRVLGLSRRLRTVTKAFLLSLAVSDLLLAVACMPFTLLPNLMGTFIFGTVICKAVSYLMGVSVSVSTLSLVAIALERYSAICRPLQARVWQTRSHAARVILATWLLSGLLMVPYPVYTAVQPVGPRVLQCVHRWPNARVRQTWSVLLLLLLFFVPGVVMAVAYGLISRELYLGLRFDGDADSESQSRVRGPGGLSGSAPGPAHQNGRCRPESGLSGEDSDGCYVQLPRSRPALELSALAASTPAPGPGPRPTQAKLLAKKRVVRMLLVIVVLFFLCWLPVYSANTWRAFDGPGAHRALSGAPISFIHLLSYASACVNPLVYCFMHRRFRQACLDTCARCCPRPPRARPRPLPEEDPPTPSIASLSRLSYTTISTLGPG
Experiment: Gastrin Receptor Binding in Guinea Pig Gastric Glands
Design: species or system guinea pig (male Hartley)
Conditions: ^125 I-gastrin, 25° C., 30 minutes, read-out: IC50 ^125 I-Gastrin Gastric Glands
Metric: IC50

>>> print(df.to_string())
                                    compound  metric  reported_measurement
 0  CN1C(=O)C(NC(=O)[C@H](Cc2ccccc2)NC(=O)OC(C)(C)C)N=C(c2ccccc2)c2ccccc21 (mixture of isomers) [Example 83]    IC50                 26 µM
 1  Cc1cccc(NC(=O)NC2N=C(c3ccccc3)c3ccccc3N(C)C2=O)c1 (stereo not shown) [Example 263]    IC50             0.0031 µM
 2  CN1C(=O)C(O)(C(=O)c2ccsc2)N=C(c2ccccc2)c2ccccc21 (racemic) [Example 53a]    IC50               0.85 µM
 3  COc1cccc(CC(=O)N[C@H]2N=C(c3ccccc3)c3ccccc3N(C)C2=O)c1 [Example 268]    IC50               0.42 µM
 4  O=C(c1ccccc1F)c1ccccc1NC(=O)C(CN1C(=O)c2ccccc2C1=O)N1C(=O)c2ccccc2C1=O (racemic) [Example 62]    IC50             > 1000 µM
 5  CN1C(=O)C(NC(=O)c2cc3ccccc3[nH]2)N=C(c2ccccc2F)c2ccccc21 (racemic) [Example 81a]    IC50               0.19 µM
 6  CN1C(=O)[C@@H](NC(=O)[C@@H](Cc2ccccc2)NC(=O)OC(C)(C)C)N=C(c2ccccc2F)c2ccccc21 [Example 232]    IC50                1.2 µM
 7  CC(C)(C)OC(=O)N[C@H](Cc1c[nH]c2ccccc12)C(=O)Nc1ccccc1C(=O)c1ccccc1F [Example 1]    IC50                167 µM
 8  CN1C(=O)C(NC(=O)Nc2ccc(F)cc2)N=C(c2ccccc2)c2ccccc21 (stereo not shown) [Example 259]    IC50              0.014 µM
 9  CN1C(=O)[C@@H](NC(=O)c2ccccc2I)N=C(c2ccccc2)c2ccccc21 [Example 283]    IC50                 66 µM
10  CN1C(=O)[C@@H](NC(=O)C2CCCCC2)N=C(c2ccccc2)c2ccccc21 [Example 191]    IC50              > 100 µM
11  CC(C(=O)O)N1C(=O)C(NC(=O)OCc2ccccc2)N=C(c2ccccc2)c2ccccc21 (stereo not shown) [Example 243]    IC50                3.6 µM
12  COc1cccc(CC(=O)N[C@@H]2N=C(c3ccccc3)c3ccccc3N(C)C2=O)c1 [Example 269]    IC50               0.45 µM
13  CCOC(=O)CN1C(=O)C(NC(=O)Cc2ccc(Cl)cc2)N=C(c2ccccc2)c2ccccc21 (stereo not shown) [Example 239]    IC50             0.0045 µM
14  CC(C)CC(=O)N[C@H]1N=C(c2ccccc2)c2ccccc2N(C)C1=O [Example 190]    IC50                130 µM
15  CN1C(=O)C(C(O)c2c[nH]c3ccccc23)N=C(c2ccccc2)c2ccccc21 (racemic) [Example 47]    IC50                 24 µM
16  Cc1ccc(S(=O)(=O)NC2N=C(c3ccccc3F)c3ccccc3NC2=O)cc1 (racemic) [Example 112]    IC50               > 10 µM
17  CN1C(=O)C(NC(=O)Nc2ccccc2)N=C(c2ccccc2)c2ccccc21 (stereo not shown) [Example 250]    IC50              0.009 µM
18  O=C(C=Cc1ccccc1)NC1N=C(c2ccccc2F)c2ccccc2NC1=O (racemic) [Example 121]    IC50                3.8 µM
19  CN1C(=O)C(NC(=O)Nc2cccc3ccccc23)N=C(c2ccccc2)c2ccccc21 (stereo not shown) [Example 273]    IC50              0.057 µM
20  CN1C(=O)C(CC(=O)Nc2ccc(Cl)cc2)N=C(c2ccccc2)c2ccccc21 (stereo not shown) [Example 297]    IC50                5.2 µM
21  CN1C(=O)[C@H](NC(=O)c2ccc(Br)cc2)N=C(c2ccccc2)c2ccccc21 [Example 93]    IC50                  2 µM
22  CN1C(=O)[C@H](NC(=O)c2ccccc2Br)N=C(c2ccccc2F)c2ccccc21 [Example 171]    IC50                5.8 µM
23  CCOC(=O)C(C)N1C(=O)C(NC(=O)OCc2ccccc2)N=C(c2ccccc2)c2ccccc21 (stereo not shown) [Example 241]    IC50               0.95 µM
24  COc1cccc(NC(=O)NC2N=C(c3ccccc3)c3cccc(C)c3NC2=O)c1 (stereo not shown) [Example 288]    IC50              0.054 µM
25  CN1C(=O)[C@@H](NC(=O)c2ccccc2I)N=C(c2ccccc2F)c2ccccc21 [Example 170]    IC50                 11 µM
26  COc1cc(NC(=O)NC2N=C(c3ccccc3)c3ccccc3N(C)C2=O)cc(OC)c1 (stereo not shown) [Example 274]    IC50                1.6 µM
27  N[C@@H](Cc1ccccc1)C(=O)NC1N=C(c2ccccc2)c2ccccc2NC1=O (single isomer, unassigned) [Example 186]    IC50              > 100 µM
28  CN1C(=O)C(NC(=O)Nc2ccccc2Cl)N=C(c2ccccc2)c2ccccc21 (stereo not shown) [Example 254]    IC50               0.11 µM
29  COc1cccc(NC(=O)NC2N=C(c3ccccc3)c3ccccc3N(C)C2=O)c1 (stereo not shown) [Example 247]    IC50             0.0016 µM
30  CN1C(=O)C(C(O)c2ccsc2)N=C(c2ccccc2)c2ccccc21 (racemic) [Example 49]    IC50                 34 µM
